# assayProtocol: adipocyte viability effects, profiling panel, cell-based, 3T3-L1 adipocytes, calcein-AM fluorescence, 48 h, basal (AID 1163); also: test concentration not given here
# experimentalContext: 3T3-L1 adipocytes viability, higher = more signal
Below, each of the molecules is paired with its reported z-score value.
Lab note: jot the number down without any unit.

CC(C)CON=C1[C@H]2CCn3c(=O)n(-c4ccccc4)c(=O)n3[C@H]2[C@H](O)[C@@H]2O[C@H]12 | 0.322
C=C(/C(=C/C[C@H](OC(=O)c1ccncc1)c1ccc(OCCO)cc1)c1cnc2ccccc2c1)C(C)C | -0.122
CC(=O)OC[C@H]1O[C@@H](ON=C[C@@H](C)[C@H](OCc2ccccc2)C(C)C)[C@H](OC(C)=O)[C@@H](OC(C)=O)[C@@H]1OC(C)=O | -0.466
CC(C)(C)N1C(=O)[C@H]2[C@H]3[C@H](O)[C@H](O)CC(=NO[C@@H]4O[C@H](CO)[C@@H](O)[C@H](O)[C@H]4O)[C@@H]3CC[C@H]2C1=O | 0.346
CC(C)(C)N1CC=CC23O[C@@H]4C=CCCOC(=O)C4[C@H]2C(=O)N(CCCCCO)[C@@H]3C1=O (stereo not given in full) | 0.231

// z-score lookup, molecule = CCOC(=O)CCN1C(=O)[C@H]2[C@H]3[C@H](O)[C@H](O)CC(=O)[C@H]3CC[C@H]2C1=O , result: 1.43

For this molecule ( CC(CCN1CCc2nc(-c3ccccc3)c(-c3ccccc3)cc2C1)=NO[C@@H](C)c1cn([C@H](CO)Cc2ccccc2)nn1 ), measured z-score is 0.343

# molecule CC(CCC(=O)OC[C@H]1O[C@H](C#Cc2ccccc2)C=C[C@@H]1Oc1ccc(C)cc1)=NOC[C@@H](O)COCc1ccco1 ; its z-score = -0.135

# z-score of [N-]=[N+]=NCc1ccccc1C[C@]1(C(=O)NCc2ccccc2)N=C(c2ccc(OCCCO)cc2)O[C@H]1c1ccccc1N=[N+]=[N-] = 0.0331

Query CO[C@@H]1COC(=O)CCC[C@@H](C)[C@H](OC)COC(=O)CCC[C@H]1C yields z-score of -0.465

---

# system: Torsin-1A (Homo sapiens)
# assayProtocol: small-molecule binders of mutant TOR1A in lysate, primary screen, cell lysate, small-molecule microarray, COS7 lysate, 635/667 nm fluorescence (AID 1150);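 also: score pools 667 nm emission and signal to noise measuring lysate protein binding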
# experimentalContext: COS7 hTOR1A mutant lysate, 635 nm fluorescence, higher = more signal
Label rule, in plain words: composite z-score of 0.7 and up is True, under 0.7 is False.

C[C@@H]1CCC2C(=O)N(Cc3ccccc3)C[C@@H](O)CN2[C@H]1c1ccc(Br)cc1 (stereo partly drawn) | True
O=C1O[C@@H](c2ccccc2)[C@@H](c2ccccc2)N2[C@@H](c3ccc(OCCO)cc3)[C@]3(C(=O)Nc4ccccc43)[C@@H](C(=O)N3CCN(c4ncccn4)CC3)[C@H]12 | True
COc1ccc(O[C@H]2C=C[C@@H](c3ccccc3)O[C@@H]2COC(=O)CCC(C)=NO[C@H](C)c2cn([C@@H]3COC[C@H]3O)nn2)cc1 | False

Now for another entry.
*Q* Identify whether the reported composite z-score of the following molecule is 0.7 or greater: CCOC(=O)NN=C1C[C@@H](O)[C@@H](O)[C@@H]2[C@@H]3C(=O)N(C4CCCCC4)C(=O)[C@@H]3CC[C@@H]12
*A* True

---

Reported z-score values for a set of compounds
# assayProtocol: S. cerevisiae growth modulation with rapamycin, primary screen, strain BY4716, OD600, 96 h (AID 1091); also: test concentration not given here
# experimentalContext: higher = more signal, called active from +8 up or from −8 down
Give the value as a plain number.

Sample answers from the record:
COc1ccc([Si](C)(C)[C@H]2[C@H](CCO)O[C@@]3(C(=O)N(Cc4cccc(NC(=O)[C@H](C)O)c4)c4ccccc43)[C@@H]2C)cc1 | 7.56
COCCOC(=O)N1C(=O)[C@@]2(c3cc(C#CCNC(N)=O)ccc31)[C@H](c1ccc(O)cc1)N1[C@H](c3ccccc3)[C@H](c3ccccc3)OC(=O)[C@H]1[C@@H]2C(=O)N1CCCCCCC1 | 1.27
CC(=O)OC[C@H]1O[C@H](CCON=C(C)CCN2CCc3nc(-c4ccccc4)c(-c4ccccc4)cc3C2)C=C[C@@H]1OC(C)=O | -4.46

Now let's try a different one.
Reported z-score of CCOC(=O)[C@H](Cc1ccccc1)NC(=O)CCC1CC(OC(=O)NCc2ccc3c(c2)OCO3)CC2(CCCC(COC(=O)NCc3ccccc3)O2)O1 (some centres undefined) : 0.942

---

Examples of compounds with documented composite z-score follow.
# system: Torsin-1A (Homo sapiens) (UniProt O14656)
# Sequence (O14656 whole entry, looked up): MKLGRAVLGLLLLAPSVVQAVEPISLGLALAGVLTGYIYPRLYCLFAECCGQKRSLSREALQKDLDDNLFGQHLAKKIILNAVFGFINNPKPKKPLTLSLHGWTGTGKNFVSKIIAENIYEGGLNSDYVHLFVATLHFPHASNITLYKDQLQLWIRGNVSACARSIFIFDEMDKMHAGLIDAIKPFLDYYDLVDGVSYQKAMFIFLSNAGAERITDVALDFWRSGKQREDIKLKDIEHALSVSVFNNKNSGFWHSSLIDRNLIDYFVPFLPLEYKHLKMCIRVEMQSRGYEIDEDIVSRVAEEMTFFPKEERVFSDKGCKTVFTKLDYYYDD
# assayProtocol: torsin A binders from cell lysate, primary screen, small-molecule microarray, wild-type, 635/667 nm (AID 1149)
# experimentalContext: COS7 hTOR1A-WT lysate, 635 nm fluorescence, higher = more signal
I'd appreciate a reply containing only the number, no unit.

CCCNC(=O)OC[C@H]1O[C@H](CCON=C[C@@H](OC)[C@H](C)C=CCC(=O)OC)C=C[C@@H]1Oc1ccc(OC)cc1 | 0.525

So, CC(CCN1CCc2nc(-c3ccccc3)c(-c3ccccc3)cc2C1)=NOC[C@@H](C)[C@H](OCc1ccccc1)C(C)C ? Its composite z-score was -2.11

Entry CC(C)(C)N1C(=O)[C@H]2[C@H]3[C@H](O)[C@H](O)CC(=NO[C@@H]4O[C@H](CO)[C@@H](O)[C@H](O)[C@H]4O)[C@@H]3CC[C@H]2C1=O — recorded composite z-score = 0.217

---

# system: Fibroblast growth factor 10 (Homo sapiens)
# assayProtocol: FGF10 binders on small-molecule microarrays, primary screen, biochemical, small-molecule microarray, 635 nm fluorescence (AID 1102)
# experimentalContext: FGF10 binding, fluorescence 635 nm, higher = more signal
measuredQuantity: composite z-score
Form field (numeric): enter value without unit.

Cn1cccc1C(O)C1C=CC2C(=O)NC(=O)C2N1Nc1ccccn1 (centres undefined) | -0.121
O=C1C[C@@H](O)[C@@H](O)[C@@H]2[C@@H]3C(=O)N(c4cccc(Oc5ccccc5)c4)C(=O)[C@@H]3CC[C@@H]12 | 0.806
COc1ccc([Si](C)(C)[C@@H]2[C@@H](CC(=O)N3CCC[C@H]3CO)O[C@]3(C(=O)N(Cc4cccc(N5CCC5=O)c4)c4ccccc43)[C@H]2C)cc1 | 0.118

# ---- query molecule ----
Kindly note the recorded composite z-score for CCCCCCc1nc(CCCc2cc3c(c(CCCCCC)n2)[Si](C(C)C)(C(C)C)O[C@H]3c2ccccc2)cc2c1[Si](C(C)C)(C(C)C)O[C@H]2c1ccccc1 , which is 0.0736

---

Documented composite z-score across a set of compounds
# system: Carbonic anhydrase 2 (Homo sapiens)
# assayProtocol: CAII small-molecule binders, profiling panel, biochemical, small-molecule microarray, Alexa647-labelled CAII (AID 1122)
# experimentalContext: CAII-A647 binding fluorescence, higher = more signal
// return just the number, without any unit appended

Solved entries (count: 4):
O=C1[C@H]2[C@H]3[C@H](O)[C@H](O)CC(=NOCc4ccccc4)[C@H]3CC[C@H]2C(=O)N1c1ccc(F)cc1F | 0.784
CC(=O)OC[C@H]1O[C@H](CCON=C[C@@H](C)[C@H](OCc2ccccc2)C(C)C)C=C[C@@H]1OC(C)=O | -0.249
COc1ccccc1CN1C(=O)c2ccccc2[C@@]2(Cc3ccccc3N(C(C)C)C2=O)[C@@H]1c1ccc(CO)cc1 | -0.0384
C=CC[C@@H]1C=C[C@H](ON=Cc2ccc(C(=O)N3[C@H](c4ccc(C)cc4)[C@@H](C)CC[C@H]3C(=O)OC)cc2)[C@@H](CO)O1 | -0.0234

Would you kindly look at the next entry?
So for CCc1cc2c(nc1CC)CCN(CCC(C)=NOC[C@@H](O)[C@H]1O[C@@H]3OC(C)(C)O[C@@H]3[C@H]1O)C2 , the logged composite z-score turned out to be 0.213

---

# assayProtocol: MM1S myeloma cell viability, profiling panel, resazurin fluorescence, basal, 24 h, PK04 Diversity Set (AID 1174);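 also: MM1S multiple myeloma cell line; test concentration not given here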
# experimentalContext: higher = more signal, called active from +8 up or from −8 down
Activity calls are given as the source filed them.
measuredQuantity: z-score

CCc1cc2c(nc1CC)CCN(CCC(C)=NOC[C@@H](O)[C@H]1O[C@@H]3OC(C)(C)O[C@@H]3[C@H]1O)C2 | -0.244 (inactive)
CCOC(=O)[C@H](CC(C)C)NC(=O)CCC1CC(OC(=O)NCc2cccc3ccccc23)CC2(CCCC(COC(=O)NCCc3ccccc3OC)O2)O1 (some centres not stated) | 0.072 (inactive)
CCOC(=O)NN=C1C[C@@H](O)[C@@H](O)[C@@H]2[C@@H]3C(=O)N(C4CCCCC4)C(=O)[C@@H]3CC[C@@H]12 | -0.292 (inactive)
C[C@@H](c1ccccc1)N1C(=O)[C@H]2[C@H]3[C@H](O)[C@H](O)CC(=NOC[C@@H](O)COCc4ccco4)[C@@H]3CC[C@H]2C1=O | -0.422 (inactive)
C[C@@H]1C=CCC(=O)OC[C@H](C)C(=O)N2CCC[C@H]2C(=O)OC1 | -0.0084 (inactive)

Measured z-score, CO[C@H]1COC(=O)CC=C[C@H](C)[C@@H](NS(=O)(=O)c2ccc(C)cc2)COC(=O)CC=C[C@@H]1C : -0.31 (inactive)

CCOC(=O)NN=C1C[C@@H](O)[C@@H](O)[C@@H]2[C@@H]3C(=O)N(C(C)(C)C)C(=O)[C@@H]3CC[C@@H]12 has a reported z-score of -0.387 (inactive)
